settings: in n-propanol, 303.15 K
Attribute Measured: solubility (mole fraction)
Output spec: single numeric token, no unit.

Give the reported solubility (mole fraction) for this molecule. `O=C(O)CCc1nc(-c2ccccc2)c(-c2ccccc2)o1`
0.00794

* * *

conditions: in n-pentyl acetate, 293.15 K
Attribute Measured: solubility (mole fraction)
Output spec: single numeric token, no unit.

Give the reported solubility (mole fraction) for this compound. `O=C(O)CCc1nc(-c2ccccc2)c(-c2ccccc2)o1`
0.0046

* * *

settings: in n-butanol, 323.15 K
Attribute Measured: solubility (mole fraction)
Output spec: single numeric token, no unit.

Give the reported solubility (mole fraction) for this molecule. `O=C(O)CCc1nc(-c2ccccc2)c(-c2ccccc2)o1`
0.0205

* * *

conditions: in n-butyl acetate, 288.15 K
Attribute Measured: solubility (mole fraction)
Output spec: single numeric token, no unit.

Give the reported solubility (mole fraction) for this compound. `O=C(O)CCc1nc(-c2ccccc2)c(-c2ccccc2)o1`
0.00416

* * *

settings: in DMF, 313.15 K
Attribute Measured: solubility (mole fraction)
Output spec: single numeric token, no unit.

Give the reported solubility (mole fraction) for this compound. `O=C(O)CCc1nc(-c2ccccc2)c(-c2ccccc2)o1`
0.207

* * *

conditions: in DMAc, 293.15 K
Attribute Measured: solubility (mole fraction)
Output spec: single numeric token, no unit.

Give the reported solubility (mole fraction) for this compound. `O=C(O)CCc1nc(-c2ccccc2)c(-c2ccccc2)o1`
0.232

* * *

conditions: in ethanol, 298.15 K
Attribute Measured: solubility (mole fraction)
Output spec: single numeric token, no unit.

Give the reported solubility (mole fraction) for this compound. `O=C(O)CCc1nc(-c2ccccc2)c(-c2ccccc2)o1`
0.00592

* * *

settings: in ethanol, 288.15 K
Attribute Measured: solubility (mole fraction)
Output spec: single numeric token, no unit.

Give the reported solubility (mole fraction) for this molecule. `O=C(O)CCc1nc(-c2ccccc2)c(-c2ccccc2)o1`
0.00388

* * *

settings: in methanol, 323.15 K
Attribute Measured: solubility (mole fraction)
Output spec: single numeric token, no unit.

Give the reported solubility (mole fraction) for this compound. `O=C(O)CCc1nc(-c2ccccc2)c(-c2ccccc2)o1`
0.0164

* * *

details: in n-pentyl acetate, 323.15 K
Attribute Measured: solubility (mole fraction)
Output spec: single numeric token, no unit.

Give the reported solubility (mole fraction) for this compound. `O=C(O)CCc1nc(-c2ccccc2)c(-c2ccccc2)o1`
0.0132

* * *

conditions: in DMAc, 308.15 K
Attribute Measured: solubility (mole fraction)
Output spec: single numeric token, no unit.

Give the reported solubility (mole fraction) for this compound. `O=C(O)CCc1nc(-c2ccccc2)c(-c2ccccc2)o1`
0.261

* * *

details: in n-propyl acetate, 278.15 K
Attribute Measured: solubility (mole fraction)
Output spec: single numeric token, no unit.

Give the reported solubility (mole fraction) for this molecule. `O=C(O)CCc1nc(-c2ccccc2)c(-c2ccccc2)o1`
0.0032

* * *

conditions: in n-propyl acetate, 313.15 K
Attribute Measured: solubility (mole fraction)
Output spec: single numeric token, no unit.

Give the reported solubility (mole fraction) for this molecule. `O=C(O)CCc1nc(-c2ccccc2)c(-c2ccccc2)o1`
0.0111

* * *

details: in n-propyl acetate, 283.15 K
Attribute Measured: solubility (mole fraction)
Output spec: single numeric token, no unit.

Give the reported solubility (mole fraction) for this molecule. `O=C(O)CCc1nc(-c2ccccc2)c(-c2ccccc2)o1`
0.00386

* * *

settings: in ethyl acetate, 303.15 K
Attribute Measured: solubility (mole fraction)
Output spec: single numeric token, no unit.

Give the reported solubility (mole fraction) for this compound. `O=C(O)CCc1nc(-c2ccccc2)c(-c2ccccc2)o1`
0.00925

* * *

settings: in methyl acetate, 278.15 K
Attribute Measured: solubility (mole fraction)
Output spec: single numeric token, no unit.

Give the reported solubility (mole fraction) for this molecule. `O=C(O)CCc1nc(-c2ccccc2)c(-c2ccccc2)o1`
0.00533

* * *

settings: in ethyl acetate, 283.15 K
Attribute Measured: solubility (mole fraction)
Output spec: single numeric token, no unit.

Give the reported solubility (mole fraction) for this compound. `O=C(O)CCc1nc(-c2ccccc2)c(-c2ccccc2)o1`
0.00472

* * *

conditions: in n-butanol, 288.15 K
Attribute Measured: solubility (mole fraction)
Output spec: single numeric token, no unit.

Give the reported solubility (mole fraction) for this molecule. `O=C(O)CCc1nc(-c2ccccc2)c(-c2ccccc2)o1`
0.00422

* * *

details: in ethyl acetate, 318.15 K
Attribute Measured: solubility (mole fraction)

Give the reported solubility (mole fraction) for this compound. `O=C(O)CCc1nc(-c2ccccc2)c(-c2ccccc2)o1`
0.0151

* * *

details: in n-butanol, 318.15 K
Attribute Measured: solubility (mole fraction)
Output spec: single numeric token, no unit.

Give the reported solubility (mole fraction) for this molecule. `O=C(O)CCc1nc(-c2ccccc2)c(-c2ccccc2)o1`
0.0164

* * *

conditions: in DMSO, 303.15 K
Attribute Measured: solubility (mole fraction)
Output spec: single numeric token, no unit.

Give the reported solubility (mole fraction) for this compound. `O=C(O)CCc1nc(-c2ccccc2)c(-c2ccccc2)o1`
0.24

* * *

conditions: in DMAc, 313.15 K
Attribute Measured: solubility (mole fraction)

Give the reported solubility (mole fraction) for this molecule. `O=C(O)CCc1nc(-c2ccccc2)c(-c2ccccc2)o1`
0.273

* * *

details: in DMF, 308.15 K
Attribute Measured: solubility (mole fraction)
Output spec: single numeric token, no unit.

Give the reported solubility (mole fraction) for this compound. `O=C(O)CCc1nc(-c2ccccc2)c(-c2ccccc2)o1`
0.197

* * *

details: in n-pentanol, 298.15 K
Attribute Measured: solubility (mole fraction)
Output spec: single numeric token, no unit.

Give the reported solubility (mole fraction) for this compound. `O=C(O)CCc1nc(-c2ccccc2)c(-c2ccccc2)o1`
0.00701

* * *

conditions: in ethanol, 318.15 K
Attribute Measured: solubility (mole fraction)
Output spec: single numeric token, no unit.

Give the reported solubility (mole fraction) for this molecule. `O=C(O)CCc1nc(-c2ccccc2)c(-c2ccccc2)o1`
0.014

* * *

conditions: in ethanol, 303.15 K
Attribute Measured: solubility (mole fraction)
Output spec: single numeric token, no unit.

Give the reported solubility (mole fraction) for this compound. `O=C(O)CCc1nc(-c2ccccc2)c(-c2ccccc2)o1`
0.00716

* * *

details: in methanol, 308.15 K
Attribute Measured: solubility (mole fraction)
Output spec: single numeric token, no unit.

Give the reported solubility (mole fraction) for this compound. `O=C(O)CCc1nc(-c2ccccc2)c(-c2ccccc2)o1`
0.00821

* * *

conditions: in DMAc, 298.15 K
Attribute Measured: solubility (mole fraction)

Give the reported solubility (mole fraction) for this compound. `O=C(O)CCc1nc(-c2ccccc2)c(-c2ccccc2)o1`
0.243

* * *

settings: in DMAc, 283.15 K
Attribute Measured: solubility (mole fraction)
Output spec: single numeric token, no unit.

Give the reported solubility (mole fraction) for this compound. `O=C(O)CCc1nc(-c2ccccc2)c(-c2ccccc2)o1`
0.213

* * *

conditions: in DMAc, 318.15 K
Attribute Measured: solubility (mole fraction)
Output spec: single numeric token, no unit.

Give the reported solubility (mole fraction) for this compound. `O=C(O)CCc1nc(-c2ccccc2)c(-c2ccccc2)o1`
0.284

* * *

details: in n-butyl acetate, 318.15 K
Attribute Measured: solubility (mole fraction)
Output spec: single numeric token, no unit.

Give the reported solubility (mole fraction) for this compound. `O=C(O)CCc1nc(-c2ccccc2)c(-c2ccccc2)o1`
0.012

* * *

settings: in n-butanol, 308.15 K
Attribute Measured: solubility (mole fraction)

Give the reported solubility (mole fraction) for this compound. `O=C(O)CCc1nc(-c2ccccc2)c(-c2ccccc2)o1`
0.0105

* * *

conditions: in methyl acetate, 288.15 K
Attribute Measured: solubility (mole fraction)

Give the reported solubility (mole fraction) for this compound. `O=C(O)CCc1nc(-c2ccccc2)c(-c2ccccc2)o1`
0.00735

* * *

details: in n-butanol, 278.15 K
Attribute Measured: solubility (mole fraction)
Output spec: single numeric token, no unit.

Give the reported solubility (mole fraction) for this compound. `O=C(O)CCc1nc(-c2ccccc2)c(-c2ccccc2)o1`
0.00266

* * *

details: in n-pentyl acetate, 283.15 K
Attribute Measured: solubility (mole fraction)

Give the reported solubility (mole fraction) for this molecule. `O=C(O)CCc1nc(-c2ccccc2)c(-c2ccccc2)o1`
0.00331

* * *

conditions: in methanol, 318.15 K
Attribute Measured: solubility (mole fraction)

Give the reported solubility (mole fraction) for this molecule. `O=C(O)CCc1nc(-c2ccccc2)c(-c2ccccc2)o1`
0.013

* * *

conditions: in ethyl acetate, 288.15 K
Attribute Measured: solubility (mole fraction)
Output spec: single numeric token, no unit.

Give the reported solubility (mole fraction) for this compound. `O=C(O)CCc1nc(-c2ccccc2)c(-c2ccccc2)o1`
0.00558

* * *

details: in methyl acetate, 293.15 K
Attribute Measured: solubility (mole fraction)
Output spec: single numeric token, no unit.

Give the reported solubility (mole fraction) for this compound. `O=C(O)CCc1nc(-c2ccccc2)c(-c2ccccc2)o1`
0.00867

* * *

details: in DMF, 303.15 K
Attribute Measured: solubility (mole fraction)
Output spec: single numeric token, no unit.

Give the reported solubility (mole fraction) for this compound. `O=C(O)CCc1nc(-c2ccccc2)c(-c2ccccc2)o1`
0.186
